Test system: S. aureus DSM 20231;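 also: OD595 on entry to stationary phase over no-drug wells; at most 1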
Experiment: fitness (endpoint OD595 vs no drug) (fraction); higher = more growth
Details: first compound 0.25 µg/mL; partner 0.125 µg/mL
REPORTED_PROPERTY: fitness

COMPOUND	ASSAY_VALUE
CC1(C)S[C@@H]2[C@H](NC(=O)[C@H](N)c3ccc(O)cc3)C(=O)N2[C@H]1C(=O)O [Amoxicillin] + CC(=O)NC[C@H]1CN(c2ccc(N3CCOCC3)c(F)c2)C(=O)O1 [Linezolid]	0.129

Provide reported fitness for each item, in the same order as listed.
1. CO/N=C(\C(=O)N[C@@H]1C(=O)N2C(C(=O)[O-])=C(C[N+]3(C)CCCC3)CS[C@H]12)c1csc(N)n1 [Cefepime] + CC(=O)NC[C@H]1CN(c2ccc(N3CCOCC3)c(F)c2)C(=O)O1 [Linezolid]
2. Cn1nnc(-c2ccc(-c3ccc(N4C[C@H](CO)OC4=O)cc3F)cn2)n1 [Tedizolid] + CC1=C\[C@@H](O)CC(=O)Cc2nc(co2)C(=O)N2CCC=C2C(=O)O[C@H](C(C)C)[C@H](C)/C=C/C(=O)NC\C=C\1
3. CO/N=C(\C(=O)N[C@@H]1C(=O)N2C(C(=O)[O-])=C(C[N+]3(C)CCCC3)CS[C@H]12)c1csc(N)n1 [Cefepime] + Cn1nnc(-c2ccc(-c3ccc(N4C[C@H](CO)OC4=O)cc3F)cn2)n1 [Tedizolid]
4. CC1(C)S[C@@H]2[C@H](NC(=O)[C@H](N)c3ccc(O)cc3)C(=O)N2[C@H]1C(=O)O [Amoxicillin] + CC1=C\[C@@H](O)CC(=O)Cc2nc(co2)C(=O)N2CCC=C2C(=O)O[C@H](C(C)C)[C@H](C)/C=C/C(=O)NC\C=C\1 [Virginiamycin M1]

A:
1. 0.956
2. 0.212
3. 0.738
4. 0.0421
